The reported numbers originate from ChEMBL document CHEMBL1143567.

Catalogue of compounds with associated IC50
Tested on: Human immunodeficiency virus 1
Experiment: Concentration required to inhibit 50% viral production of human immunodeficiency virus type 1 (HIV-1-IIIB)
Assay type: functional, organism-based
Measured Quantity: IC50 (nM)

{"Compound": "CCN1c2cc([N+](=O)[O-])ccc2N(C)C(=O)c2cccnc21", "Measured Quantity": "IC50", "Unit Info": "nM", "Assay Value": 400}
{"Compound": "CC(C)=CCOc1cc(NC(=S)c2ccoc2C)ccc1Cl", "Measured Quantity": "IC50", "Unit Info": "nM", "Assay Value": 9}
{"Compound": "O=C1Nc2ccc(Cl)cc2C(/C=C/C2CC2)(C(F)(F)F)N1 (stereo not drawn)", "Measured Quantity": "IC50", "Unit Info": "nM", "Assay Value": 0.4}
